binding to HLA-A2.1 (column 3; no allele head shown for these rows) for assorted sequences
- tested-on: HLA-A*0201 (HLA-A2.1) (Homo sapiens, UniProt P04439, D140Y/D185E/D98H/E176V/E277Q/G131W/G231S/I119V/I121R/I166T/I218V/L300P/L318F/N151K/N90K/P208A/P217A/Q86G/Q94H/R138H/R169H/T345S)
- test-details: biochemical
- Assay type: binding
readout-label: binding to HLA-A2.1 (column 3; no allele head shown for these rows)

INSERT INTO results (query_sequence, qualifier, endpoint_value) VALUES
  ('YVIKVSARV', '=', 0.018),
  ('SLQLVFGIDV', '=', 0.0047),
  ('GASSLPTTM', '=', 0),
  ('RAVITKKVA', '=', 0),
  ('ALAETSYVK', '=', 0.0002),
  ('EALEAQQEA', '=', 0),
  ('HLYIFATCLGL', '=', 0.041),
  ('ALAETSYVKVL', '=', 0.012),
  ('AVITKKVADLV', '=', 0),
  ('IMPKAGLLIIV', '=', 0.013),
  ('LAETSYVKV', '=', 0),
  ('KTGFLIIVL', '=', 0.0006),
  ('LVMIAMEGGHA', '=', 0.0005),
  ('LIIVLVMI', '=', 0.0001),
  ('KMVELVHFLLL', '=', 0.67),
  ('KVAELVHFL', '=', 0.073),
  ('EVVPISHLYI', '<', 0.0002),
  ('VADLVGFLL', '=', 0.0011),
  ('QAAISRKMV', '=', 0),
  ('QLVFGIELMEV', '=', 0.34),
  ('KVADLVGFLLL', '=', 0.020);
